Activity reference
system: Avian myeloblastosis virus; experiment: Inhibition of AMV reverse transcriptase activity assessed as incorporation of dTMP in poly(rA)-oligo(dT) at 100 uM; set-up: scale not given: the % may be the effect or the level left
Give just the number in %; leave the unit off.

{"structure_as_smiles": "O=C(O[C@@H]1O[C@@H]2COC(=O)c3cc(O)c(O)c(O)c3-c3c(cc(O)c(O)c3O)C(=O)O[C@H]([C@H]1O)[C@@H]2O)c1cc(O)c(O)c(O)c1", "units": "%", "Activity": 25}

Q: Please indicate Activity recorded for O=C(O[C@H]1O[C@@H]2COC(=O)c3cc(O)c(O)c(O)c3-c3c(cc(O)c(O)c3O)C(=O)O[C@H]2[C@@H]2OC(=O)c3cc(O)c(O)c(O)c3-c3c(cc(O)c(O)c3O)C(=O)O[C@@H]12)c1cc(O)c(O)c(Oc2c(C(=O)O[C@H]3O[C@@H]4COC(=O)c5cc(O)c(O)c(O)c5-c5c(cc(O)c(O)c5O)C(=O)O[C@H]4[C@@H]4OC(=O)c5cc(O)c(O)c(O)c5-c5c(cc(O)c(O)c5O)C(=O)O[C@@H]34)cc(O)c(O)c2O)c1
A: 19

###

Activity reference
system: Avian myeloblastosis virus; assay: Inhibition of AMV reverse transcriptase activity assessed as incorporation of dTMP in poly(rA)-oligo(dT) at 0.1 uM; parameters: scale not given: the % may be the effect or the level left
Give just the number in %; leave the unit off.

Recorded Activity, per entry:
{"molecule": "O=C1OC[C@H]2OC(O)[C@@H]3OC(=O)c4cc(O)c(O)c(O)c4-c4c(cc(O)c(O)c4O)C(=O)O[C@H]3[C@@H]2OC(=O)c2cc(O)c(O)c(O)c2-c2c1cc(O)c(O)c2O (some centres undefined)", "Activity / %": 88}
{"molecule": "O=C(O[C@@H]1O[C@@H]2COC(=O)c3cc(Oc4c(C(=O)O[C@@H]5O[C@@H]6COC(=O)c7cc(O)c(O)c(O)c7-c7c(cc(O)c(O)c7O)C(=O)O[C@H]6[C@H](OC(=O)c6cc(O)c(O)c(O)c6)[C@H]5OC(=O)c5cc(O)c(O)c(O)c5)cc(O)c(O)c4O)c(O)c(O)c3-c3c(cc(O)c(O)c3O)C(=O)O[C@H]2[C@H](OC(=O)c2cc(O)c(O)c(O)c2)[C@H]1OC(=O)c1cc(O)c(O)c(O)c1)c1cc(O)c(O)c(O)c1", "Activity / %": 55}
{"molecule": "Oc1cc(O)c2c(c1)O[C@H](c1ccc(O)c(O)c1)[C@H](O)[C@H]2c1c(O)cc(O)c2c1O[C@H](c1ccc(O)c(O)c1)[C@H](O)C2", "Activity / %": 102}

Q: Please indicate Activity recorded for O=C(O[C@@H]1O[C@@H]2COC(=O)c3cc(O)c(O)c(O)c3-c3c(cc(O)c(O)c3O)C(=O)O[C@H]([C@H]1O)[C@@H]2O)c1cc(O)c(O)c(O)c1
A: 88

###

Activity reference
tested on: Avian myeloblastosis virus; experiment: Inhibition of AMV reverse transcriptase activity assessed as incorporation of dTMP in poly(rA)-oligo(dT) at 0.1 uM; parameters: scale not given: the % may be the effect or the level left
Give just the number in %; leave the unit off.

Recorded Activity, per entry:
{"structure_as_smiles": "O=c1oc2c(O)c(O)cc3c(=O)oc4c(O)c(O)cc1c4c23", "Activity, %": 93}
{"structure_as_smiles": "O=C(OC[C@H]1O[C@@H](OC(=O)c2cc(O)c(O)c(O)c2)[C@H](OC(=O)c2cc(O)c(O)c(O)c2)[C@@H](OC(=O)c2cc(O)c(O)c(O)c2)[C@@H]1OC(=O)c1cc(O)c(O)c(O)c1)c1cc(O)c(O)c(O)c1", "Activity, %": 67}
{"structure_as_smiles": "O=C(O)C[C@H]1C(=O)O[C@H]2[C@H](OC(=O)c3cc(O)c(O)c(O)c3)[C@@H](OC(=O)c3cc(O)c(O)c4c3[C@H]1[C@H](O)C(=O)O4)[C@H](OC(=O)c1cc(O)c(O)c(O)c1)O[C@@H]2COC(=O)c1cc(O)c(O)c(O)c1", "Activity, %": 109}

Q: Please indicate Activity recorded for O=C[C@H](OC(=O)c1cc(O)c(O)c(O)c1)[C@@H](OC(=O)c1cc(O)c(O)c(O)c1)[C@@H]1OC(=O)c2cc(O)c(O)c(O)c2-c2c(cc(Oc3c(C(=O)O[C@@H](C=O)[C@@H](OC(=O)c4cc(O)c(O)c(O)c4)[C@@H]4OC(=O)c5cc(O)c(O)c(O)c5-c5c(cc(O)c(O)c5O)C(=O)OC[C@H]4O)cc(O)c(O)c3O)c(O)c2O)C(=O)OC[C@H]1O
A: 82

###

Activity reference
test system: Avian myeloblastosis virus; assay: Inhibition of AMV reverse transcriptase activity assessed as incorporation of dGMP in poly(rC)-oligo(dG) at 1 uM; design: scale not given: the % may be the effect or the level left

Recorded Activity, per entry:
{"structure_as_smiles": "O=c1oc2c(O)c(O)cc3c(=O)oc4c(O)c(O)cc1c4c23", "reported": "80%"}
{"structure_as_smiles": "O=C(O[C@@H]1O[C@@H]2COC(=O)c3cc(O)c(O)c(O)c3-c3c(cc(O)c(O)c3O)C(=O)O[C@H]([C@H]1O)[C@@H]2O)c1cc(O)c(O)c(O)c1", "reported": "72%"}
{"structure_as_smiles": "O=C1OC[C@H]2O[C@@H](O)[C@H](O)[C@@H](O)[C@@H]2OC(=O)c2cc(O)c(O)c(O)c2-c2c(O)c(O)c3oc(=O)c4c(c(O)c(O)c5oc(=O)c2c3c54)-c2c1cc(O)c(O)c2O", "reported": "109%"}
{"structure_as_smiles": "COc1cc2c[n+](C)c3c4cc5c(cc4ccc3c2cc1OC)OCO5", "reported": "85%"}
{"structure_as_smiles": "O=C1O[C@@H]2[C@@H](OC(=O)c3cc(O)c(O)c(O)c3-c3c1cc(O)c(O)c3O)[C@H](O)O[C@@H]1COC(=O)c3cc(O)c(O)c(O)c3-c3c(O)c(O)c4oc(=O)c5c(c(O)c(O)c6oc(=O)c3c4c65)-c3c(cc(O)c(O)c3O)C(=O)O[C@@H]21", "reported": "76%"}

Next, consider the following molecule.
Q: Please indicate Activity recorded for O=C1O[C@H]2[C@@H]3OC(=O)c4cc(O)c(O)c(O)c4-c4c(cc(O)c(O)c4O)C(=O)OC[C@H]2O[C@@H](OC(=O)c2cc(O)c(O)c(O)c2)[C@@H]3OC(=O)c2cc(O)c(O)c3c2[C@@H]2C1=CC(=O)[C@](O)(O3)C2(O)O
A: 93%

###

tested on: Avian myeloblastosis virus; test: Inhibition of AMV reverse transcriptase activity assessed as incorporation of dGMP in poly(rC)-oligo(dG) at 100 uM; set-up: scale not given: the % may be the effect or the level left
endpoint: Activity (%)
Give just the number in %; leave the unit off.

{"compound": "O=C[C@@H]1OC(=O)c2c3c(O)c(O)c(O)c2-c2c(cc(O)c(O)c2O)C(=O)O[C@H]1[C@@H]1OC(=O)c2c(c(O)c(O)c(O)c2-c2c(cc(O)c(O)c2O)C(=O)O[C@H]1COC(=O)c1cc(O)c(O)c(O)c1)O[C@H]1[C@@H]2OC(=O)c4cc(O)c(O)c(O)c4-c4c(cc(O)c(O)c4O)C(=O)O[C@H]2[C@H](OC(=O)c2cc(O)c(O)c(O)c2)O[C@@H]1CO3", "Activity [%]": 14}
{"compound": "O=C1OC[C@H]2OC(O)[C@@H]3OC(=O)c4cc(O)c(O)c(O)c4-c4c(cc(O)c(O)c4O)C(=O)O[C@H]3[C@@H]2OC(=O)c2cc(O)c(O)c(O)c2-c2c1cc(O)c(O)c2O (stereo partly drawn)", "Activity [%]": 7}

Q: Please indicate Activity recorded for Oc1cc(O)c2c(c1)O[C@H](c1ccc(O)c(O)c1)[C@H](O)[C@H]2c1c(O)cc(O)c2c1O[C@H](c1ccc(O)c(O)c1)[C@H](O)C2
A: 64

###

test system: Avian myeloblastosis virus; assay: Inhibition of AMV reverse transcriptase activity assessed as incorporation of dTMP in poly(rA)-oligo(dT) at 1000 uM; set-up: scale not given: the % may be the effect or the level left
Activity reference

Q: Please indicate Activity recorded for O=C(O[C@@H]1O[C@@H]2COC(=O)c3cc(O)c(O)c(O)c3-c3c(cc(O)c(O)c3O)C(=O)O[C@H]2[C@H](OC(=O)c2cc(O)c(O)c(O)c2)[C@H]1OC(=O)c1cc(O)c(O)c(O)c1)c1cc(O)c(O)c(Oc2c(C(=O)O[C@H]3O[C@@H]4COC(=O)c5cc(O)c(O)c(O)c5-c5c(cc(O)c(O)c5O)C(=O)O[C@H]4[C@H](OC(=O)c4cc(O)c(O)c(O)c4)[C@H]3OC(=O)c3cc(O)c(O)c(O)c3)cc(O)c(O)c2O)c1
A: 1%

Q: Please indicate Activity recorded for O=C(O)c1cc(O)c(O)c(O)c1
A: 78%

Q: Please indicate Activity recorded for O=C(O[C@@H]1O[C@@H]2COC(=O)c3cc(O)c(O)c(O)c3-c3c(cc(O)c(O)c3O)C(=O)O[C@H]([C@H]1O)[C@@H]2O)c1cc(O)c(O)c(O)c1
A: 3%

Q: Please indicate Activity recorded for O=C(O)C[C@@H]1C(=O)O[C@H]2[C@@H]3OC(=O)c4cc(O)c(O)c(O)c4-c4c(cc(O)c(O)c4O)C(=O)OC[C@H]2O[C@@H](OC(=O)c2cc(O)c(O)c(O)c2)[C@@H]3OC(=O)c2cc(O)c(O)c3c2[C@H]1[C@H](O)C(=O)O3
A: 6%

Where do these numbers come from? They come from ChEMBL document CHEMBL1151661.
